// reported solubility for each item listed
# Procedure Details: Solubility in alphaMEM culture medium containing 5% FCS at 22 degC
# Format: physicochemical
Your answer should be a plain number; it is taken to be in µM.

{"columns": ["Molecule", "solubility (µM)"],
 "data": [
  ["COc1ccc(/C=C/C(=O)N2CC(CCl)c3c2cc([N+](=O)[O-])c2ccccc32)cc1O (stereo not drawn)", 9],
  ["COc1ccc(/C=C/C(=O)N2CC(COS(=O)(=O)Cc3ccccc3)c3c2cc([N+](=O)[O-])c2ccccc32)cc1O (stereo not drawn)", 35]
]}

Lab note: next molecule to report on.
# molecule COc1ccc2[nH]c(C(=O)N3CC(COS(=O)(=O)c4ccc(C)cc4)c4c3cc([N+](=O)[O-])c3ccccc43)cc2c1 (stereo not drawn) ; its solubility = 12
